Cited source: paper PMC10082216

- assay comment: TD-6450 phase I clinical study (SAD/MAD): pharmacokinetics
- Type: in vivo, human
- particulars: male, human, in vivo, TD-6450 concentration
quantity name: concentration at 120 h (ng/mL)
Supply the numeric figure in ng/mL, leaving out any unit text.

Could you share which concentration at 120 h value was measured for CNC(=O)N1C[C@@H](C)N(c2ccc(C(=O)Nc3ccc(-c4ccc(-c5c[nH]c([C@@H]6CCCN6C(=O)[C@@H](NC(=O)OC)C(C)C)n5)cc4)c(OC(F)(F)F)c3)cn2)C[C@@H]1C [TD-6450] ? 19.3

====

- assay comment: TD-6450 phase I clinical study (SAD/MAD): pharmacokinetics
- Format: in vivo, human
- particulars: male, human, plasma, oral, 120 mg, Male subjects, SAD arm NCT02022306, Dose 120.00, 15 Minutes; read-out: Concentration (ng/ml)
quantity name: concentration at 15 min (ng/mL)
Give a bare numeral; the unit ng/mL is implied.

Returns the measured concentration at 15 min for the input molecule. Input: `CNC(=O)N1C[C@@H](C)N(c2ccc(C(=O)Nc3ccc(-c4ccc(-c5c[nH]c([C@@H]6CCCN6C(=O)[C@@H](NC(=O)OC)C(C)C)n5)cc4)c(OC(F)(F)F)c3)cn2)C[C@@H]1C` 0
